Reference for the values: BindingDB's records for doi:10.1007/s00044-010-9428-9

So I've got a bunch of molecules here, and I need their pEC50 values.
molecular target: Peroxisome proliferator-activated receptor gamma (Homo sapiens, UniProt P37231); assay: Transactivation activity at Homo sapiens (human) PPARgamma
Sequence (P37231 whole entry): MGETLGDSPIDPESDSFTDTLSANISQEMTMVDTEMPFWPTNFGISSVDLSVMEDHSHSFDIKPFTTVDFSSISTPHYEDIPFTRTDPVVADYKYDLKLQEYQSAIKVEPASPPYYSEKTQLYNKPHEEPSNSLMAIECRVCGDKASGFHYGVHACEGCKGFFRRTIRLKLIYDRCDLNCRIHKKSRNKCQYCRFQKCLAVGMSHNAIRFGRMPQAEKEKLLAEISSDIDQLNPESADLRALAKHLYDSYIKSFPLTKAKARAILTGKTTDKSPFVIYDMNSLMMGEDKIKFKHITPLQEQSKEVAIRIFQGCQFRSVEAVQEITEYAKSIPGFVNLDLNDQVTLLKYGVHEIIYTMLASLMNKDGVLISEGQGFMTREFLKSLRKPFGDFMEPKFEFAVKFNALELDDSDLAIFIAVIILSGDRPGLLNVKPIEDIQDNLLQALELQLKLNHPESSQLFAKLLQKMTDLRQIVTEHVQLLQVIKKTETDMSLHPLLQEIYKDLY
Worth noting: pEC50 values are minus log10 of concentrations stated in mol/L.

Query block: Form: Entry = O=c1[nH]c(O)c(Cc2ccc3c(c2)CC[C@H](Cc2ccccc2)O3)s1 | System = Peroxisome proliferator-activated receptor gamma (Homo sapiens, UniProt P37231) | pEC50 = ____
Result block: 6.00

Query block: Form: Entry = CCCc1cc(Oc2ccccc2)ccc1OCCCCOc1ccc(-c2sc(=O)[nH]c2O)cc1 | System = Peroxisome proliferator-activated receptor gamma (Homo sapiens, UniProt P37231) | pEC50 = ____
Result block: 6.00
